Source listed as PubChem BioAssay AID1996.

Record form. Attribute: solubility kinetic. Fill in for each entry.
Conditions: buffer; pH 7.4; 200.0 µM

Example results:
                                   compound   measurement
0  COCc1ccc(CN2CCC(CO)(CC3CCCCO3)CC2)o1 (configuration not stated)  > 50.6 µg/mL
1           Cc1csc(SCC(=O)NCc2cccc(Cl)c2)n1  > 46.9 µg/mL
2      CC1=C/C(=C\C=C(C#N)C#N)N(C)c2ccccc21     0.8 µg/mL

Batch request: solubility kinetic per item, same order as input.
1. O=C(O)c1cccc(S(=O)(=O)NCC2COc3ccccc3O2)c1 (configuration not stated)
2. CC(Sc1cccc[n+]1[O-])C(=O)NC1CCCCC1C (configuration not stated)
3. COc1ccc(C2(CNC(=O)c3ccc(N)cc3)CCCC2)cc1
4. CCc1ccc2oc(-c3ccc(NC(C)=O)cc3)nc2c1
5. COc1ccc(C(=O)O)cc1S(=O)(=O)Nc1ccc(C)cc1
6. COc1cccc(NC(=O)c2cc3ccccc3o/c2=N\O)c1
7. COc1ccc2[nH]c(C(=O)O)c(NC(=O)c3ccccc3[N+](=O)[O-])c2c1

Out:
> 52.4 µg/mL
> 44.2 µg/mL
26.7 µg/mL
0.8 µg/mL
> 48.2 µg/mL
22.2 µg/mL
> 53.3 µg/mL

Batch request: solubility kinetic per item, same order as input.
1. COc1ccc(-c2noc(CN(C)C3CCOCC3)n2)cc1
2. COC(=O)CC(c1ccccc1F)N1Cc2ccccc2C1=O (configuration not stated)

Out:
1: > 45.5 µg/mL; 2: > 47 µg/mL

###

Record form. Attribute: solubility kinetic. Fill in for each entry.
Conditions: buffer; pH 7.4; 200.0 µM
Give bare numbers, in µg/mL.

                                  molecule  measurement
0  COc1cccc(-n2cc(-c3ccc(F)cc3)[nH]c2=S)c1          2.4

Batch request: solubility kinetic per item, same order as input.
1. COc1ccc(CC(=O)O/N=C(\N)c2ccncc2)cc1
2. CCOc1ccccc1C1CC(=O)Nc2cc(OC)c(OC)cc21 (centres undefined)

Out:
1. 39.9
2. 0.9

Batch request: solubility kinetic per item, same order as input.
1. O=[N+]([O-])c1c(NCCCO)cc(N2CCCCCC2)c2nonc12
2. Cc1ccc(O)c(NC(=O)Cc2ccc3ccccc3c2)c1

Out:
[28.6, 6.5]

Batch request: solubility kinetic per item, same order as input.
1. N#Cc1ccccc1Oc1ccccc1C=O
2. Cc1cc(NC(=O)c2cc(C(C)(C)C)oc2C)no1
3. Cc1cc(C)cc(NC(=O)N(C)Cc2ccccc2)c1
4. O=C1NCCCCC1NS(=O)(=O)c1ccc(F)c(F)c1 (centres undefined)

Out:
31.6
0.9
2
43.1

In: Entry CCC(C(=O)NC(C)c1ccccc1)C(=O)NC(C)c1ccccc1 (centres undefined) : reported solubility kinetic = ?
Out: 6.8

###

Details: buffer; pH 7.4; 200.0 µM
MEASUREMENT KIND: solubility kinetic

                                   compound    measurement_kind   measurement
0  O=C(Nc1cccc(C(F)(F)F)c1)c1sc(Cl)nc1C(F)(F)F  solubility kinetic    36.3 µg/mL
1         O=c1[nH]cc(NCCc2ccccc2)c(=O)[nH]1  solubility kinetic  > 34.7 µg/mL
2        CC(=O)c1ccc(/C=C/c2nc3ccccc3n2C)o1  solubility kinetic  > 39.9 µg/mL
3         N#C/C(=C\c1ccc(N2CCCCC2)o1)C(N)=O  solubility kinetic  > 36.8 µg/mL
4  C=Cc1ccc(C(=O)NC2CCCN(Cc3ccccc3F)C2)cc1 (stereo unspecified)  solubility kinetic   < 0.4 µg/mL

Let us examine a further case.
In: Entry CNc1nc(-c2ccccc2)[n+](-c2ccc(C)cc2)s1.[Br-] : reported solubility kinetic = ?
Out: 42.1 µg/mL
